B1: Non-structural maintenance of chromosomes element 3 homolog (Homo sapiens), Q96MG7 (parent)
chain: MLQKPRNRGRSGGQAERDRDWSHSGNPGASRAGEDARVLRDGFAEEAPSTSRGPGGSQGSQGPSPQGARRAQAAPAVGPRSQKQLELKVSELVQFLLIKDQKKIPIKRADILKHVIGDYKDIFPDLFKRAAERLQYVFGYKLVELEPKSNTYILINTLEPVEEDAEMRGDQGTPTTGLLMIVLGLIFMKGNTIKETEAWDFLRRLGVYPTKKHLIFGDPKKLITEDFVRQRYLEYRRIPHTDPVDYEFQWGPRTNLETSKMKVLKFVAKVHNQDPKDWPAQYCEALADEENRARPQPSGPAPSS
partner: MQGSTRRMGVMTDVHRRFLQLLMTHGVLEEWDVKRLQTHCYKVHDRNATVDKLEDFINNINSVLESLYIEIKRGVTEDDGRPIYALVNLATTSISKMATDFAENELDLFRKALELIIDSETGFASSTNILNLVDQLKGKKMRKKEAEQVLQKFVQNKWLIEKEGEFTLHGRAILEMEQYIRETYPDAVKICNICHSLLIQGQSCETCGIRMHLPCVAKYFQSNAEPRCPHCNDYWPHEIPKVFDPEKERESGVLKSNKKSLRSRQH

Variants of: B1
Conditions: with nse1_human NSMCE1, Q8WV22
Quantity measured: effect of a mutation on the interaction

• L264F = with no effect
• F266A = with no effect
